Experiment: Half life in human plasma
Type: ADME, cell-free
Measured metric: half-life (min)
The response must be a number in min with no trailing unit.

Look up and report measured half-life for this entry: CCCCOCCOc1ccc(-c2ccc3c(c2)/C=C(/C(=O)Nc2ccc([S@@+]([O-])Cc4cncn4CCC)cc2)CCCN3CC(C)C)cc1
1800
